B1: PBXIP1 (parent)
chain: FGEDGIFRHDRLRFRDFVDALEDS

# Variants of: B1
# measurement.description: protein stability index of a GFP-peptide fusion (GPS, HEK-293T) (PSI 1-6); higher = more stable;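 also: lentivirally expressed fusions sorted by FACS into six bins by GFP to DsRed ratio, PSI derived from sequencing read proportions per bin multiplied by bin number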
# measurement.setup: c terminus: a fixed tail appended
outcome.measure: protein stability index
API note: the answer field is a bare number with no unit suffix.

// solved cases for protein stability index follow
### Prompt Which value of protein stability index has been reported for G5D in the records?
### Response 3.5

### Prompt Which value of protein stability index has been reported for E3T in the records?
### Response 2.28

### Prompt Which value of protein stability index has been reported for D19P in the records?
### Response 2.53

More entries:
### Prompt Which value of protein stability index has been reported for F7S in the records?
### Response 2.97

### Prompt Which value of protein stability index has been reported for H9R in the records?
### Response 2.39

### Prompt Which value of protein stability index has been reported for G5I in the records?
### Response 2.86
